# system.under.test: MSI1 full-length (mouse, UniProt Q61474 1-362)
# Sequence (Q61474 whole entry): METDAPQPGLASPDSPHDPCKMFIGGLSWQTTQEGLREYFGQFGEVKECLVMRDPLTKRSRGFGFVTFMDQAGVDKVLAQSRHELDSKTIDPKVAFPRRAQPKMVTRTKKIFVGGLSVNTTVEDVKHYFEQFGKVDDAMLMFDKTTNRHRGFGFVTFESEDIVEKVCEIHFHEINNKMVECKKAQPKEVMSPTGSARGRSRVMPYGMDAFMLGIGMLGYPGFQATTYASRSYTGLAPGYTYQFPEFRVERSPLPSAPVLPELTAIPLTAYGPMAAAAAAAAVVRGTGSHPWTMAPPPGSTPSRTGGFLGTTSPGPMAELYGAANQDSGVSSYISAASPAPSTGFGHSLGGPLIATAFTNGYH
# assay.summary: nsRBNS (natural sequence RNA bind-n-seq); RBNS binding buffer (assumed for nsRBNS): 25 mM Tris pH 7.5, 150 mM KCl, 3 mM MgCl2, 0.01% Triton X-100, 500 ug/ml BSA, 20 U/ml SUPERase-In, 4 C; UNK is unkempt and MSI1 is Musashi-1; names of the RNAs are library labels; protein concentration not given here; high values mean tight binding
The full ranking holds about 5,800 sequences; the median of “enrichment r” is about 0.54, and the highest 2% start at about 16. Shown is part of a subset that was picked to be rich in the highest values.
readout.name: binding signal
Write the numeric value and append its unit.

Input line: Please look up its binding signal: ENSG00000107863:be:win_1951|CDS|ENSG00000107863|bound_else_gene|NA|bound_elsewhere_windowed (ssRNA) RNA: GGGAGUUCUACAGUCCGACGAUCCCAGUAAAUCACUUGCAUCAGAACAGUCUGUUGAAUCAGCAGACAUGGGUAAGGACUGACAGUGCCCCCGAUCAGCAAGUGGAGACUGGGAAAUCCCCCUCUUUAUCUGGAGCCUCUGCCCAACAGAGGAUUGAGCAUCA
Output line: 0.425 enrichment R

Input line: What does the data say about its binding signal? Entry: chr9:122240152:122240253:-|3pUTR|ENSG00000119446|msi1|total|mutant (ssRNA) RNA: GGGAGUUCUACAGUCCGACGAUCCUUCUUGGAGUACCGAAUUCACCAUUUUAUCCGUAAGUCUUCAAAGGAUUAUGGUGGACCCGAACUUACACCGUGCAAAACCGUCUUCUAUUUUUAACCGGAACUCCGAAAAAACUCCGACAACAGAGGAUUGAGCAUCA
Output line: 0.272 enrichment R

Input line: I have this binder here, chr1:213241217:213241334:+|CDS|ENSG00000136643|unk|FALSE|unique (ssRNA) RNA: GGGAGUUCUACAGUCCGACGAUCAGUUCUCCAAGAACAUCAGAUUCCCUCAGUAGAUCAAAAAAUAGCCCCAUGGAAUUCUUUAGGAUAGACAGUAAGGAUAGCGCAAGUGAACUCCUGGGACUUGACUUUGGAGAAAAAUUGCAACAGAGGAUUGAGCAUCA , and I need its recorded binding signal.
Output line: 24.6 enrichment R
